B1: library; a variant is named by its letters at N, in order (parent)
chain: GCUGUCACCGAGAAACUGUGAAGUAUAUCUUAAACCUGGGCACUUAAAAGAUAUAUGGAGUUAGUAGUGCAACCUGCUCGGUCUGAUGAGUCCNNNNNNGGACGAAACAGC

Variants of: B1
TEST SUMMARY: FACS-Seq fitted mean relative fluorescence mCherry/BFP with ligand (log10 relative fluorescence); HEK293T; ligand: cyclic di-GMP (c-di-GMP-II aptamer); ligand concentration (+) FACS-Seq: 1 mM; higher = higher reporter protein expression
CONDITION NOTES: ligand present: yes
Label scheme for FACS-Seq fitted mean (log10): low value: < -0.03; medium value: ≥ -0.03 and < 0.4; high value: ≥ 0.4

MUTATION LIST | GROUP LABEL
CGGCAA | low value
GAAGGA | medium value
CUAACU | low value
CCUCCU | medium value
UGGCAU | high value
CAGUUU | low value
UGUACC | high value
GCGUAU | medium value

Classify this variant: UAAAUG
medium value
